The reported measurements were obtained from patent US9845319B2.

Target: human RORγt ligand binding domain (RORγt LBD) (Homo sapiens, UniProt P51449)
Construct: His-tag (N); TurboTEV protease cleavage site (ENLYFQG) (N)
Sequence (P51449 with tags, fused parts or gaps): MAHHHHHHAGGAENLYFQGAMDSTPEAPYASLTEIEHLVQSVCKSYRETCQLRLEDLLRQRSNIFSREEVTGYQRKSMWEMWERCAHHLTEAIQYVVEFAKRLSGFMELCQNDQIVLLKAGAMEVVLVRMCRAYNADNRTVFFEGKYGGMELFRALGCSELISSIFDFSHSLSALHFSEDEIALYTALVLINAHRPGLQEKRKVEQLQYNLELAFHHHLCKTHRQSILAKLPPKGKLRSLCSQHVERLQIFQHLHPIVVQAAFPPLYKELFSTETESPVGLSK
Test: RORγt ThermoFluor assay
Details: estimated from thermal shift concentration response
Protocol: This approach is applicable to a wide variety of systems, and rigorous in theoretical interpretation through quantitation of equilibrium binding constants (KD). […] Fluorescence was measured by continuous illumination with UV light (Hamamatsu LC6) supplied via fiber optic and filtered through a band-pass filter (380-400 nm; >6 OD cutoff). […] Images were collected at each temperature, and the sum of the pixel intensity in a given area of the assay plate was recorded versus temperature. […]
Quantity: Kd (nM)

Substance smiles: CCN(CC)C(=O)c1nc(-c2nnc(C)o2)sc1-c1ccc(S(=O)(=O)N[C@@H](C)C(F)(F)F)c(Cl)c1Cl
Unit of measurement: nM
Kd: 290

[A] CC[C@H](NS(=O)(=O)c1ccc(-c2sc(-c3nnc(C(C)(C)O)o3)nc2C(=O)N2CCC(F)(F)CC2)c(C(F)F)c1F)C(F)(F)F
[B] C[C@H](NS(=O)(=O)c1ccc(-c2sc(-c3nnc(CC(C)(C)O)o3)nc2C(=O)N2CC(F)(F)C[C@@H]2C)c(Cl)c1Cl)C(F)(F)F
[C] CC[C@H](NS(=O)(=O)c1ccc(-c2sc(-c3cccc(CC(C)(C)C(=O)O)n3)nc2C(=O)N2CC(F)(F)C[C@@H]2C)c(C(F)F)c1F)C(F)(F)F
[D] Cc1c(S(=O)(=O)N[C@@H](C)C(F)(F)F)ccc(-c2sc(-c3nnc(C(C)(C)O)o3)nc2C(=O)N2CCC(F)(F)CC2)c1Cl
[E] CC1(NS(=O)(=O)c2ccc(-c3sc(-c4nnc(C(C)(C)O)o4)nc3C(=O)N3CCC(F)(F)CC3)c(Cl)c2Cl)CC1
query: Put the compounds in ascending order of Kd. Give your ranking as a list of the labels in the requested order.
result: C, D, B, A, E
(C: 0.023 nM, D: 0.38 nM, B: 0.59 nM, A: 1.7 nM, E: 4.7 nM)
